Test system: Fibronectin secretion from liver HepG2 cells
TEST_PROTOCOL: Fibronectin secretion (Western blot), HepG2 cells
Type: cell-based, human
MEASUREMENT_CONDITIONS: Homo sapiens, HepG2, HepG2 cells, 10 ug/ml
QUANTITY_KIND: inhibition at 10 µg/mL (%)
Please reply with the bare figure in % and do not write the unit itself.

COMPOUND	TESTED_ON	inhibition at 10 µg/mL / %
C/C=C(/C)C(=O)O[C@H]1[C@H](OC(=O)/C(C)=C\C)[C@@]23C(CC1(C)C)[C@]1(CCC4[C@@]5(C)CC[C@H](O)C(C)(C)C5CC[C@@]4(C)[C@]1(C)C[C@H]2O)O[C@@H]3O (stereo partly shown)	Fibronectin secretion from liver HepG2 cells	25
C/C=C(/C)C(=O)O[C@H]1[C@H](OC(=O)/C(C)=C\C)[C@@]2(CO)C(CC1(C)C)C1=CCC3[C@@]4(C)CC[C@H](O[C@@H]5OC(C(=O)O)[C@@H](O)C(O[C@@H]6O[C@@H](CO)C(O)C6O)C5O[C@@H]5OC(CO)[C@H](O)C(O)C5O)C(C)(C)C4CC[C@@]3(C)[C@]1(C)[C@@H](O)[C@H]2O (stereo partly shown)	Fibronectin secretion from liver HepG2 cells	42
C/C=C(/C)C(=O)O[C@H]1[C@H](OC(C)=O)C(C)(C)CC2C3=CCC4[C@@]5(C)CC[C@H](O[C@@H]6OC(C(=O)OCCCC)[C@@H](O)C(O[C@@H]7O[C@@H](CO)C(O)C7O)C6O[C@@H]6OC(CO)[C@H](O)C(O)C6O)C(C)(C)C5CC[C@@]4(C)[C@]3(C)C[C@@H](O)[C@]21CO (stereo partly shown)	Fibronectin secretion from liver HepG2 cells	42
C/C=C(/C)C(=O)O[C@H]1[C@H](O)[C@@]2(COC(=O)C(C)CC)C(CC1(C)C)C1=CCC3[C@@]4(C)CC[C@H](O[C@@H]5OC(C(=O)O)[C@@H](O)C(O[C@@H]6O[C@@H](CO)C(O)C6O)C5O[C@@H]5OC(CO)[C@H](O)C(O)C5O)C(C)(C)C4CC[C@@]3(C)[C@]1(C)[C@@H](O)[C@H]2O (stereo partly shown)	Fibronectin secretion from liver HepG2 cells	10
C/C=C(/C)C(=O)O[C@H]1[C@H](OC(=O)C(C)C)[C@@]2(CO)C(CC1(C)C)C1=CCC3[C@@]4(C)CC[C@H](O[C@@H]5OC(C(=O)O)[C@@H](O)C(O[C@@H]6O[C@@H](CO)C(O)C6O)C5O[C@@H]5OC(CO)[C@H](O)C(O)C5O)C(C)(C)C4CC[C@@]3(C)[C@]1(C)[C@@H](O)[C@H]2O (stereo partly shown)	Fibronectin secretion from liver HepG2 cells	40

Output measured inhibition at 10 µg/mL for this item: C/C=C(/C)C(=O)O[C@@H]1C(O)[C@H](O[C@H]2[C@H](OC(C)=O)[C@@]3(CO)C(CC2(C)C)C2=CCC4[C@@]5(C)CC[C@H](O[C@@H]6OC(C(=O)O)[C@@H](O)[C@@H](O[C@@H]7O[C@@H](CO)[C@@H](O)C7O)C6O[C@@H]6OC(CO)[C@H](O)[C@@H](O)C6O)C(C)(C)C5CC[C@@]4(C)[C@]2(C)C[C@H]3O)OC(C)[C@@H]1OC(=O)/C(C)=C\C (stereo partly shown)
33

Output measured inhibition at 10 µg/mL for this item: C/C=C(/C)C(=O)O[C@H]1[C@H](OC(=O)/C(C)=C\C)[C@@]2(CO)C(CC1(C)C)C1=CCC3[C@@]4(C)CC[C@H](O[C@@H]5OC(C(=O)O)[C@@H](O)C(O[C@@H]6OC[C@@H](O)C(O)C6O)C5O[C@@H]5OC(CO)[C@H](O)C(O)C5O)C(C)(C)C4CC[C@@]3(C)[C@]1(C)C[C@H]2O (stereo partly shown)
33
